Listed below: RTAβ values for each entry.
Target: ERβ (Homo sapiens)
Sequence (Q92731 whole entry): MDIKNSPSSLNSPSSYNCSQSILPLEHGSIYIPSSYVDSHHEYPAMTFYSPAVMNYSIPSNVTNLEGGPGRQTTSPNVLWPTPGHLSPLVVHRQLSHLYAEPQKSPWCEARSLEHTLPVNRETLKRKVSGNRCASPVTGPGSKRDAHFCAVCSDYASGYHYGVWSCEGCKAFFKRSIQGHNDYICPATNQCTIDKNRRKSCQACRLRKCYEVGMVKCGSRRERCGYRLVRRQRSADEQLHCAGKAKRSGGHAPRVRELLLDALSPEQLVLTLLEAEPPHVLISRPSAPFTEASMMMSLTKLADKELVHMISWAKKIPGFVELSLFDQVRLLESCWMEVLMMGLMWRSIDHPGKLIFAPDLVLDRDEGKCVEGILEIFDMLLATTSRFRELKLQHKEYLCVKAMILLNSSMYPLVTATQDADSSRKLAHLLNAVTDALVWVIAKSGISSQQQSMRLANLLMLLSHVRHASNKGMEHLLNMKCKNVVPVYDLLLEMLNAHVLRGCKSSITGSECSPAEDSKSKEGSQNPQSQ
Experiment: Relative transcription assay (RTA), estrogen response element driven luciferase, estrogen beta receptor
Type: cell-based
Details: relative transcription activity, estradiol=100
The answer should be a number; do not append a unit.

- C[C@]12CC[C@H](c3ccc(O)cc3Cl)CC1CC[C@@H]2O (some centres unmarked): 188
- C[C@]12CC[C@H](c3ccc(O)cc3F)CC1CC[C@@H]2O (some centres unmarked): 162
- C[C@]12CCC(c3ccc(O)cc3CCSCc3ccccc3)=CC1CC[C@@H]2O (some centres unmarked): 15.6

Exercise: Which measured RTAβ value corresponds to C[C@]12CC[C@H](c3cc(F)c(O)c(F)c3F)CC1CC[C@@H]2O (some centres unmarked) ?
Key: 53

Exercise: Which measured RTAβ value corresponds to C[C@]12CCC(c3ccc(O)cc3Cl)=CC1CC[C@@H]2O (some centres unmarked) ?
Key: 188

Exercise: Which measured RTAβ value corresponds to Cc1cc(O)ccc1[C@H]1CC[C@@]2(C)C(CC[C@@H]2O)C1 (some centres unmarked) ?
Key: 149

Exercise: Which measured RTAβ value corresponds to C[C@]12CC=C(c3ccc(O)cc3Cl)CC1CC[C@@H]2O (some centres unmarked) ?
Key: 157

Exercise: Which measured RTAβ value corresponds to C[C@]12CC[C@@H]3c4ccc(O)cc4CC[C@H]3[C@@H]1CC[C@@H]2O [Estradiol, 17β-estradiol, reference compound] ?
Key: 100

Exercise: Which measured RTAβ value corresponds to C[C@]12CC[C@H](c3ccc(O)c(F)c3)CC1CC[C@@H]2O (some centres unmarked) ?
Key: 14

Exercise: Which measured RTAβ value corresponds to C[C@]12CC[C@H](c3ccc(O)cc3)CC1CC[C@@H]2O (some centres unmarked) ?
Key: 164

Exercise: Which measured RTAβ value corresponds to C[C@]12CC[C@H](c3ccc(O)c(F)c3F)CC1CC[C@@H]2O (some centres unmarked) ?
Key: 151
